These data points were gathered from ChEMBL document CHEMBL1201862.

- Tested on: OVCAR-3
- Assay Summary: NCI tumour cell line growth inhibition, 48 h
Calls of active or inactive are those of the source. Rule as the data show it: active = GI50 up to about 1.1 µM and inactive = higher.
Assay Endpoint: GI50

Please review the following examples before continuing.
INSERT INTO measurements (compound, assay_endpoint, data_value) VALUES
  ('C[N+](C)(C)CCC(=O)CC[N+](C)(C)C', 'GI50', '18.6 µM (inactive)'),
  ('CSc1nc(SC)c2c(C)cn(C3OC(C)C(O)C(O)C3O)c2n1 (stereo unspecified)', 'GI50', '48.8 µM (inactive)'),
  ('Clc1ccc(C2NN=C3c4ccccc4OCC32)cc1 (stereo unspecified)', 'GI50', '5.16 µM (inactive)'),
  ('Nc1nc2c(C(=O)NCc3cccs3)nnn2c2cccc(Cl)c12', 'GI50', '> 100 µM (inactive)'),
  ('COc1ccc(/N=C(C)/C(C)=N/c2ccc(OC)cc2)cc1', 'GI50', '> 100 µM (inactive)');

Consider the additional compound presented here.
Field GI50 (entry CC(=O)NNc1nc(C)c(C(=O)NNC(=O)C(=O)Nc2ccc([N+](=O)[O-])cc2C#N)s1 ) reads 63.5 µM (inactive)
